The origin of these recorded values is paper PMC4403932.

targetSystem: BRD9 (Homo sapiens, UniProt Q9H8M2)
Construct: made in house
Sequence (Q9H8M2 136-240 limits assumed): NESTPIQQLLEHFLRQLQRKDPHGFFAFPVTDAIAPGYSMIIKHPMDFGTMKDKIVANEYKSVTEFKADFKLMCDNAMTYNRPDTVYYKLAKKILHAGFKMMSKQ
testSummary: Protein stability (thermal) shift assay, BRD9
Assay type: binding
conditionSummary: thermal shift, 10 μM compound, 2 μM protein; read-out: ΔTm
propertyMeasured: ΔTm at 10 µM (°C)
Numbers only, in °C.

Here is how some compounds turned out for ΔTm at 10 µM.
COc1ccc(Cl)cc1-c1nc(N)nc2[nH]cnc12 : 3.8
Nc1nc(-c2cc(Br)cc3c2OCC3)c2nc[nH]c2n1 : 6.5

For every record below, what is its ΔTm at 10 µM?
1. Nc1nc(Br)c2nc[nH]c2n1
2. COc1ccccc1-c1nc(N)nc2[nH]cnc12

Result:
1: 1.6; 2: 2.9

====

targetSystem: BRD3(1) (Homo sapiens, UniProt Q15059)
Construct: Fragments were tested in a thermal shift assay against bromodomains of the BET subfamily; made in house
Sequence (Q15059 34-140 limits assumed): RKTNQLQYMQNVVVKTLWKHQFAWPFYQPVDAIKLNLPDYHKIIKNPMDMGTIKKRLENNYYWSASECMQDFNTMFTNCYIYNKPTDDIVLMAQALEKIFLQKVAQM
testSummary: Protein stability (thermal) shift assay, BRD3(1)
Type: binding
conditionSummary: compound 10 μM, protein 2 μM; average of triplicate
propertyMeasured: ΔTm at 10 µM (°C)
One number for each entry, in °C.

Here is how some molecules turned out for ΔTm at 10 µM.
COc1ccc(F)cc1-c1nc(O)nc2[nH]cnc12 [Compound 8d] : 0.9
COc1cccc(OC(C)C)c1-c1nc(N)nc2[nH]cnc12 [Compound 6b] : 0.651
CCCCOc1cc(Br)cc(-c2nc(N)nc3c2ncn3C)c1 [Compound 5b] : 0.227
COc1ccc(Cl)cc1-c1nc(O)nc2[nH]cnc12 [Compound 8e] : 1.9
COc1ccc(Br)cc1-c1nc(Cl)nc2[nH]cnc12 [Compound 8a] : 1
Nc1nc(-c2ccc(Oc3ccccc3)cc2)c2nc[nH]c2n1 [Compound 3d, 2-Amino-6-(4-phenoxyphenyl)-9H-purine] : -0.127
Clc1nc(Cl)c2nc[nH]c2n1 [Compound 1, 2,6-dichloro-9H-purine] : 0.7
COc1ccc(Br)cc1-c1nc(N)nc2c1ncn2CC(C)=O [Compound 8c] : 0.275
Nc1nc(-c2ccc(OCc3ccccc3)c(Cl)c2)c2nc[nH]c2n1 [Compound 4a] : -0.252
Nc1nc(-c2ccc(COc3cccc(C(F)(F)F)c3)cc2)c2nc[nH]c2n1 [Compound 3g] : -0.125

For every record below, what is its ΔTm at 10 µM?
1. COCCc1ccc(OCc2ccc(-c3nc(N)nc4[nH]cnc34)cc2)cc1 [Compound 3h]
2. Cn1cnc2c(-c3ccc(Oc4ccccc4)cc3)nc(N)nc21 [Compound 3e]
3. Nc1nc(-c2ccc3c(c2)OCCO3)c2nc[nH]c2n1 [Compound 4c]
4. COc1ccc(Br)cc1-c1nc(O)nc2[nH]cnc12 [Compound 8f]

Result:
1: 0.5; 2: 0.743; 3: 0.0747; 4: 0.55

For every record below, what is its ΔTm at 10 µM?
1. COc1ccc(Cl)cc1-c1nc(N)nc2[nH]cnc12 [Compound 7c]
2. COc1cc(COc2ccc(-c3nc(N)nc4[nH]cnc34)cc2Cl)cc(OC)c1 [Compound 4b]
3. COc1ccccc1-c1nc(N)nc2[nH]cnc12 [Compound 7a, 2-Amino-6-(2-methoxyphenyl)-9H-purine]

Result:
[0.9, 0.445, 1.4]

For every record below, what is its ΔTm at 10 µM?
1. COc1cccc(OC)c1-c1nc(N)nc2[nH]cnc12 [Compound 6a]
2. Nc1nc(-c2ccccc2)c2nc[nH]c2n1 [Compound 3a, 2-Amino-6-phenyl-9H-purine]
3. COc1ccc(-c2nc(N)nc3c2ncn3C)cc1 [Compound 3c]
4. COc1ccc(F)cc1-c1ncnc2[nH]c(C)nc12 [Compound 9b]
5. CCCCOc1cc(Br)cc(-c2nc(N)nc3[nH]cnc23)c1 [Compound 5a]
6. COc1ccc(-c2nc(N)nc3[nH]cnc23)cc1 [Compound 3b, 2-Amino-6-(4-methoxyphenyl)-9H-purine]
7. Nc1nc(-c2cccc(OCc3ccc(Cl)cc3)c2)c2nc[nH]c2n1 [Compound 4d]
8. CCOc1ccc(Br)cc1-c1nc(N)nc2[nH]cnc12 [Compound 7e]

Result:
0.341
0.9
-1
0.2
0.9
-0.06
0.7
1.6

====

targetSystem: BRD9 (Homo sapiens)
Construct: made in house
testSummary: Protein stability (thermal) shift assay, BRD9
Type: binding
conditionSummary: compound 10 μM, protein 2 μM; average of triplicate; read-out: ΔTm Shift, BRD9
propertyMeasured: ΔTm at 10 µM (°C)
Numbers only, in °C.

Here is how some molecules turned out for ΔTm at 10 µM.
COCCc1ccc(OCc2ccc(-c3nc(N)nc4[nH]cnc34)cc2)cc1 : -0.532
Nc1nc(-c2ccc(COc3cccc(C(F)(F)F)c3)cc2)c2nc[nH]c2n1 : -0.9
COc1ccc(Cl)cc1-c1nc(O)nc2[nH]cnc12 : -0.2
CCCCOc1cc(Br)cc(-c2nc(N)nc3[nH]cnc23)c1 : 1.1

For every record below, what is its ΔTm at 10 µM?
1. COc1cc(COc2ccc(-c3nc(N)nc4[nH]cnc34)cc2Cl)cc(OC)c1
2. COc1ccc(F)cc1-c1nc(O)nc2[nH]cnc12
3. Nc1nc(-c2ccccc2)c2nc[nH]c2n1

Result:
-2
-0.8
-0.107

====

targetSystem: BRD4(2) (Homo sapiens, UniProt O60885)
Construct: made in house
testSummary: Protein stability (thermal) shift assay, BRD4(2)
Assay type: binding
conditionSummary: compound 10 μM, protein 2 μM; average of triplicate
propertyMeasured: ΔTm at 10 µM (°C)
Numbers only, in °C.

COc1cccc(OC)c1-c1nc(N)nc2[nH]cnc12 [Compound 6a] : -1.3
COc1ccc(Br)cc1-c1nc(N)nc2[nH]cnc12 [Compound 7d] : 0.6
COc1ccc(Br)cc1-c1nc(O)nc2[nH]cnc12 [Compound 8f] : 0.7
COc1ccc(F)cc1-c1ncnc2[nH]c(C)nc12 [Compound 9b] : 0.148

// next item, ΔTm at 10 µM requested
Problem: Quick check: ΔTm at 10 µM of COc1ccccc1-c1nc(N)nc2[nH]cnc12 [Compound 7a, 2-Amino-6-(2-methoxyphenyl)-9H-purine] ?
Result: -2.2

====

targetSystem: BRD3(2) (Homo sapiens)
Construct: made in house
Sequence (Q15059 306-415 limits assumed): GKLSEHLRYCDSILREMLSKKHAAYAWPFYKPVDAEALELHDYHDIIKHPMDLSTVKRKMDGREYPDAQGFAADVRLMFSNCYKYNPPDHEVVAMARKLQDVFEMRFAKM
testSummary: Protein stability (thermal) shift assay, BRD3(2)
Format: binding
conditionSummary: compound 10 μM, protein 2 μM; average of triplicate
propertyMeasured: ΔTm at 10 µM (°C)
Give bare numbers, in °C.

Here is how some compounds turned out for ΔTm at 10 µM.
COCCc1ccc(OCc2ccc(-c3nc(N)nc4[nH]cnc34)cc2)cc1 : 2
Clc1nc(Cl)c2nc[nH]c2n1 : -0.159
COc1cccc(OC(C)C)c1-c1nc(N)nc2[nH]cnc12 : 0.6

For every record below, what is its ΔTm at 10 µM?
1. COc1ccc(Br)cc1-c1nc(N)nc2c1ncn2C
2. COc1ccc(Br)cc1-c1nc(O)nc2[nH]cnc12

Result:
[0.467, 0.853]

====

targetSystem: PCAF (Homo sapiens, UniProt Q92831)
Construct: representative BRDs from other structural subfamilies (family I, PCAF); made in house
Sequence (Q92831 723-827 limits assumed): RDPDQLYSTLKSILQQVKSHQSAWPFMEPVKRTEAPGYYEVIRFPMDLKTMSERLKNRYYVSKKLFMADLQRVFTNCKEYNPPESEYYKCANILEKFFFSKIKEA
testSummary: Protein stability (thermal) shift assay, PCAF
Format: binding
conditionSummary: compound 10 μM, protein 2 μM; average of triplicate
Could you please report measured ΔTm at 10 µM for the items listed next?
Give bare numbers, in °C.

Here is how some molecules turned out for ΔTm at 10 µM.
COCCc1ccc(OCc2ccc(-c3nc(N)nc4[nH]cnc34)cc2)cc1 [Compound 3h] : -0.2
Nc1nc(-c2ccc(COc3cccc(C(F)(F)F)c3)cc2)c2nc[nH]c2n1 [Compound 3g] : 0.1
COc1ccc(Cl)cc1-c1nc(O)nc2[nH]cnc12 [Compound 8e] : 2
COc1ccc(F)cc1-c1nc(N)nc2[nH]cnc12 [Compound 7b] : -0.151

// next item, ΔTm at 10 µM requested
Problem: Quick check: ΔTm at 10 µM of Nc1nc(-c2ccc(OCc3ccccc3)c(Cl)c2)c2nc[nH]c2n1 [Compound 4a] ?
Result: -0.2

====

targetSystem: CREBBP (Homo sapiens)
Construct: small thermal shits (1.0–1.3 °C) for the bromodomain of CREBBP; made in house
Sequence (Q92793 1085-1192 limits assumed): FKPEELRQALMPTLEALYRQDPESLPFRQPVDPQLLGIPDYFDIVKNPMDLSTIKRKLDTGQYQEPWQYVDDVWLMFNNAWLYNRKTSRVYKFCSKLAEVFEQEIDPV
testSummary: Protein stability (thermal) shift assay, CREBBP
Format: binding
conditionSummary: compound 10 μM, protein 2 μM; average of triplicate; read-out: ΔTm Shift, CREBBP
propertyMeasured: ΔTm at 10 µM
Respond with a number, then the unit of measure.

Here is how some molecules turned out for ΔTm at 10 µM.
COc1cccc(OC)c1-c1nc(N)nc2[nH]cnc12 : 0.34 °C
COc1ccc(F)cc1-c1nc(O)nc2[nH]cnc12 : 0.34 °C
Nc1nc(-c2ccc(OCc3ccccc3)cc2)c2nc[nH]c2n1 : 2.6 °C
Nc1nc(-c2ccc(Oc3ccccc3)cc2)c2nc[nH]c2n1 : 0.6 °C
COc1ccc(Br)cc1-c1nc(N)nc2[nH]cnc12 : 2.9 °C
COc1ccc(-c2nc(N)nc3[nH]cnc23)cc1 : 0.663 °C
Clc1nc(Cl)c2nc[nH]c2n1 : 1.6 °C
COc1ccc(Cl)cc1-c1nc(N)nc2[nH]cnc12 : 0.272 °C

// next item, ΔTm at 10 µM requested
Problem: Quick check: ΔTm at 10 µM of Nc1nc(-c2ccccc2)c2nc[nH]c2n1 ?
Result: 0.847 °C
